assay: Dynamic light scattering of lipid nanoparticles (size, PDI); type: physicochemical; conditions: LNP with cationic lipid CL-D
Assay Metric: Size (nm)
The answer is to be given in nm; state only the numeric part.

These solved cases illustrate the format of a correct answer.
Compound	Reading Unit	Value Reported
CCCCCCCCC(CCCCCCCC)OC(=O)CCCCCCC(=O)OCC(COP(=O)(O)OCCN)OC(=O)CCCCCCC(=O)OC(CCCCCCCC)CCCCCCCC (stereo not shown)	nm	131.5
CCCCCCCCOC(=O)CCCCCCCC(=O)OCC(COP(=O)(O)OCCN(C)C)OC(=O)CCCCCCCC(=O)OCCCCCCCC (stereo not shown)	nm	121.9
CCCCCCCCOC(=O)CCCCCCCC(=O)OC(COC(=O)CCCCCCC(=O)OC(CCCCCCCC)CCCCCCCC)COP(=O)(O)OCCN(C)C (stereo not shown)	nm	96.6
CC(C)CCCCOC(=O)CCCCCCC(=O)OCC(COP(=O)(O)OCCN(C)C)OC(=O)CCCCCCC(=O)OCCCCC(C)C (stereo not shown)	nm	151.4
CCCCCCCCC(CCCCC)COC(=O)CCC(=O)OCC(COP(=O)(O)OCCN(C)C)OC(=O)CCC(=O)OCC(CCCCC)CCCCCCCC (stereo not shown)	nm	100.5
CCCCCCCCC(CCCCCCCC)OC(=O)CCCCCCC(=O)OCC(COP(=O)(O)OCCN(C)C)OC(=O)CCCCCCC(=O)OC(CCCCCCCC)CCCCCCCC (stereo not shown)	nm	113.4

[Q] Requested read-out: Size. Entry: CC(C)CCCCOC(=O)CCCCCCC(=O)OCC(COP(=O)(O)OCCN)OC(=O)CCCCCCC(=O)OCCCCC(C)C (stereo not shown)
[A] 114.3
